Reference for the values: patent EP4703388A1

TEST_TARGET: T1, cyno TF ECD-His (cTF-his) (monkey (cyno))
T1 construct: also called bio-cTF-his; monkey TF-His protein
T1 chain: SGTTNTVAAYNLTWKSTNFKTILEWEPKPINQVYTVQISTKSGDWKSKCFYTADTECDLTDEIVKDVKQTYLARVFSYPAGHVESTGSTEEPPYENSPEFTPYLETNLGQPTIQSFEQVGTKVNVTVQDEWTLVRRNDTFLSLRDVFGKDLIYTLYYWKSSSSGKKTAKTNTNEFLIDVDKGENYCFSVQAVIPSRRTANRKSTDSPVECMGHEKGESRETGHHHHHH
ASSAY_SUMMARY: SPR Biacore T200, antibody on Protein A chip, TF-His as analyte, 1:1 model
READOUT_LABEL: koff (s⁻¹)
Enter your answer as a number in s⁻¹; do not include the unit.

Known koff results, listed for orientation:
INSERT INTO assay_data (binder, readout_label, value_reported) VALUES
  ('hu67-3 (antibody, human IgG1, kappa, V domains shown) VH: EVQLQESGPGLVKPSQTLSLTCTVSGFSLTNYGVNWIRQPPGKGLEWIGVIWSRGNTDYNAAFISRVTISKDTSKNQVSLKLSSVTAADTAVYYCARKDAVVATDALDYWGQGTTVTVSS VL: DIVMTQSPKSLAVSLGERATINCKASQDVSTAVAWYQQKPGQPPKLLIYSTSYRYTGVPDRFSGSGSGTDFTLTISSLQAEDVAVYYCQQHYSTPYTFGGGTKVEIKR', 'koff', 0.000431),
  ('hu67-8 (antibody, human IgG1, kappa, V domains shown) VH: EVQLQESGPGLVKPSQTLSLTCTVSGFSLTNYGVNWIRQPPRKGLEWIGVIWSRGNTDYNAAFISRVTISKDNSKSQVSLKLSSVTAADTAVYYCARKDAVVATDALDYWGQGTTVTVSS VL: DIVMTQSPKSLAVSLGERATINCKASQDVSTAVAWYQQKPGQSPKLLIYSTSYRYTGVPDRFSGSGSGTDFTFTISSLQAEDVAVYYCQQHYSTPYTFGGGTKVEIKR', 'koff', 0.000446);

Here is the next item to consider.
Problem: Input hu67Y116 (antibody, human IgG1, kappa, V domains shown) VH: EVQLQESGPGLVKPSQTLSLTCTVSGFSLTNYGVNWIRQSPGKGLEWIGVIWSRGNTDYNAAFKSRVTISKDTSKNQVSLKLSSVTAADTAVYYCARKDAIVATDALDYWGQGTTVTVSS VL: DIQMTQSPSSLSASVGDRVTITCKASQDVQTAVAWYQQKPGKAPKLLIYSTHYRYTGVPSRFSGSGSGTDFTFTISSLQPEDIATYYCLQSYTLPFSFGGGTKVEIKR , output reported koff.
Solution: 0.000947
